Target: EGFR L858R/T790M/C797S (BaF3-LTC cells) (Homo sapiens, UniProt P00533, C797S/L858R/T790M)
Construct: expressed in transfected cells; host or cells: BaF3
Sequence (P00533 25-1210 T790M/C797S/L858R): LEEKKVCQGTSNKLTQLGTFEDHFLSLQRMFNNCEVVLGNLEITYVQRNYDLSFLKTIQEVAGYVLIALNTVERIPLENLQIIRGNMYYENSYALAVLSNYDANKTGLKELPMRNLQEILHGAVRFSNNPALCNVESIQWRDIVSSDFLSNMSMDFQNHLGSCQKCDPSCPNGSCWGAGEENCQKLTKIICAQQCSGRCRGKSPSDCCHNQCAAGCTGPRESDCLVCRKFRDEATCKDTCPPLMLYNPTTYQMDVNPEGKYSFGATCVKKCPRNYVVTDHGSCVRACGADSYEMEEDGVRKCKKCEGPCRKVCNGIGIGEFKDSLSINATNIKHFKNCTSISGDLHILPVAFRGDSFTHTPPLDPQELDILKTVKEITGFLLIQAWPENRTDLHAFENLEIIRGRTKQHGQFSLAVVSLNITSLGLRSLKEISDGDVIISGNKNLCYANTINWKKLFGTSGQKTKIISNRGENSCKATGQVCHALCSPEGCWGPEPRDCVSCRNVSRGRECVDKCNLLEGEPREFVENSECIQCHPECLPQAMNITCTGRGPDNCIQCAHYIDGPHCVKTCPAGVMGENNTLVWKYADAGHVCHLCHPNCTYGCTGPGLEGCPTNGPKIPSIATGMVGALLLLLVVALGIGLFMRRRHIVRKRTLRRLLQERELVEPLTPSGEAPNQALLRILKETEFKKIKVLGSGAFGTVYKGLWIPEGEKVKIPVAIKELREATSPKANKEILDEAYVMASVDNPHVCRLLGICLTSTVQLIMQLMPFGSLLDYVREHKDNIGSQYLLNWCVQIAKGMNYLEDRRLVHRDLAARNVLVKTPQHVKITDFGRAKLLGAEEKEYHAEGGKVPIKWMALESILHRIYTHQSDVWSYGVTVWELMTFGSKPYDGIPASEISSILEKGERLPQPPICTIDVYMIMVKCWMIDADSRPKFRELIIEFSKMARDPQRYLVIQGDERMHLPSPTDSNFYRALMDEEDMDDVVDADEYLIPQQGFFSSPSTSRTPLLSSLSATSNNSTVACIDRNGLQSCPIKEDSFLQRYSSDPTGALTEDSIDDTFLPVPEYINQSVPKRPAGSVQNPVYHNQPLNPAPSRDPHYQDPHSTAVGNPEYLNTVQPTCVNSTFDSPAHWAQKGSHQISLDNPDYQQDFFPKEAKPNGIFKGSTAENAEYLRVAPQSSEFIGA
Assay: EGFR degradation HTRF assay, BaF3-LTC cells
Assay type: cell-based
Settings: BaF3-LTC, 16h treatment; read-out: LTC DC50
experimentalEndpoint: DC50 (µM)

The following compounds have reported results that may help.
CCc1cc(Nc2ncc(Br)c(Nc3ccc4nccnc4c3P(C)(C)=O)n2)c(OC)cc1N1CCC(N2CCN(C3CN(c4ccc(C5CCC(=O)NC5=O)cc4)C3)CC2)CC1 (stereo not shown) [Example 250]
0.0248
CCc1cc(Nc2ncc(Br)c(Nc3ccc4nccnc4c3P(C)(C)=O)n2)c(OC)cc1N1CCC(N2CCN(C[C@H]3C[C@H](N(C)c4cccc(C5CCC(=O)NC5=O)c4)C3)CC2)CC1 (stereo partly shown) [Example 307]
0.0771
CCc1cc(Nc2ncc(Br)c(Nc3ccc4nc(C)ccc4c3P(C)(C)=O)n2)c(OC)cc1N1CCC(N2CCC(C(=O)N3CCC(c4cc(F)c(C5CCC(=O)NC5=O)c(F)c4)CC3)CC2)CC1 (stereo not shown) [Example 700]
0.0131

P: CCc1cc(Nc2ncc(Br)c(Nc3ccc4nccnc4c3P(C)(C)=O)n2)c(OC)cc1N1CCC(N2CCN(CC3CN(c4cc(F)c(C5CCC(=O)NC5=O)c(F)c4)C3)CC2)CC1 (stereo not shown) [Example 253]
Q: CCc1cc(Nc2ncc(Br)c(Nc3ccc4nc(C)ccc4c3P(C)(C)=O)n2)c(OC)cc1N1CCC(N2CCN(C(=O)CNc3cc(F)c(C4CCC(=O)NC4=O)c(F)c3)CC2)CC1 (stereo not shown) [Example 432]
Challenge: Which gives the smaller DC50 number: P or Q ? The response must carry the label of the picked entry.
Response given: Q
(Q: 0.00424 µM, P: 0.0198 µM)

1: CCc1cc(Nc2ncc(Br)c(Nc3ccc4nccnc4c3P(C)(C)=O)n2)c(OC)cc1N1CCC(N2CCN(C(=O)CCN3CCN(c4ccc5c(c4)C(=O)N(C4CCC(=O)NC4=O)C5=O)CC3)CC2)CC1 (stereo not shown) [Example 61]
2: CCc1cc(Nc2ncc(Br)c(Nc3ccc4nccnc4c3P(C)(C)=O)n2)c(OC)cc1N1CCC(N2CCN(C3CC4(CCN(c5ccc(C6CCC(=O)NC6=O)cc5)CC4)C3)CC2)CC1 (stereo not shown) [Example 311]
Challenge: Between the two listed entries 1 and 2 , which has its DC50 at the higher number? Record your answer as the label of the chosen record.
Response given: 2
(2: 0.0782 µM, 1: 0.0201 µM)

I: CCc1cc(Nc2ncc(Br)c(Nc3ccc4nccnc4c3P(C)(C)=O)n2)c(OC)cc1N1CCC(N2CCN(C(=O)[C@H]3CCN(c4ccc5c(c4)CN(C4CCC(=O)NC4=O)C5=O)C3)CC2)CC1 (stereo partly shown) [Example 240]
II: CCc1cc(Nc2ncc(Br)c(Nc3ccc4nc(C)ccc4c3P(C)(C)=O)n2)c(OC)cc1N1CCC(N2CCN(CCc3ccc4c(c3)C3(CC3)C(=O)N4C3CCC(=O)NC3=O)CC2)CC1 (stereo not shown) [Example 710]
Challenge: Among I and II , whose measured DC50 is the smaller figure? Your answer should be the label attached to the chosen record.
Response given: I

* * *

Tested on: EGFR Del19/T790M/C797S (H1975-clone #28)
Assay: EGFR degradation HTRF assay, H1975-clone #28 DTC cells
Assay type: cell-based
Details: H1975 # 28 DTC cells; maximum percentage of inhibition (degradation)
// values below are reported Dmax (%) H1975 # 28 DTC
Write the value in % as a bare number.

COc1cc(N2CCC(N3CCN(C(=O)[C@H]4CCN(c5cc(F)c(C6CCC(=O)NC6=O)c(F)c5)C4)CC3)CC2)c(C)cc1Nc1ncc(Br)c(Nc2ccc3c(=O)n(C)ncc3c2P(C)(C)=O)n1 (stereo partly shown)
78.24
CCOc1cc(N2CCC(N3CCN(CCc4c(F)cc(F)c5c4oc(=O)n5C4CCC(=O)NC4=O)CC3)CC2)c(CC)cc1Nc1ncc(Br)c(Nc2ccc3nc(CC)ccc3c2P(C)(C)=O)n1 (stereo not shown)
93.44
CCc1ccc2c(P(C)(C)=O)c(Nc3nc(Nc4cc(C)c(N5CCC(N6CCN(CCc7cccc8c7n(C)c(=O)n8C7CCC(=O)NC7=O)CC6)CC5)cc4OC4CC4)ncc3Br)ccc2n1 (stereo not shown)
79.5
CCc1cc(Nc2ncc(Br)c(Nc3ccc4nc(C)ccc4c3P(C)(C)=O)n2)c(OC)cc1N1CCC(N2CCN(C(=O)[C@H]3CN(c4cc(F)c([C@H]5CCC(=O)NC5=O)c(F)c4)CC3(C)C)CC2)CC1
85.45

Challenge: Record request: Dmax (%) H1975 # 28 DTC value, item CCOc1cc(N2CCC(N3CCN(CCc4cccc5c4oc(=O)n5C4CCC(=O)NC4=O)CC3)CC2)c(CC)cc1Nc1ncc(Br)c(Nc2ccc3nc(CC)ccc3c2P(C)(C)=O)n1 (stereo not shown)
Response given: 83.08

* * *

Molecular target: EGFR (HCC827 cells) (Homo sapiens, UniProt P00533, DEL746-750)
Construct: endogenous in cells; host or cells: HCC827
Sequence (P00533 with tags, fused parts or gaps DEL746-750): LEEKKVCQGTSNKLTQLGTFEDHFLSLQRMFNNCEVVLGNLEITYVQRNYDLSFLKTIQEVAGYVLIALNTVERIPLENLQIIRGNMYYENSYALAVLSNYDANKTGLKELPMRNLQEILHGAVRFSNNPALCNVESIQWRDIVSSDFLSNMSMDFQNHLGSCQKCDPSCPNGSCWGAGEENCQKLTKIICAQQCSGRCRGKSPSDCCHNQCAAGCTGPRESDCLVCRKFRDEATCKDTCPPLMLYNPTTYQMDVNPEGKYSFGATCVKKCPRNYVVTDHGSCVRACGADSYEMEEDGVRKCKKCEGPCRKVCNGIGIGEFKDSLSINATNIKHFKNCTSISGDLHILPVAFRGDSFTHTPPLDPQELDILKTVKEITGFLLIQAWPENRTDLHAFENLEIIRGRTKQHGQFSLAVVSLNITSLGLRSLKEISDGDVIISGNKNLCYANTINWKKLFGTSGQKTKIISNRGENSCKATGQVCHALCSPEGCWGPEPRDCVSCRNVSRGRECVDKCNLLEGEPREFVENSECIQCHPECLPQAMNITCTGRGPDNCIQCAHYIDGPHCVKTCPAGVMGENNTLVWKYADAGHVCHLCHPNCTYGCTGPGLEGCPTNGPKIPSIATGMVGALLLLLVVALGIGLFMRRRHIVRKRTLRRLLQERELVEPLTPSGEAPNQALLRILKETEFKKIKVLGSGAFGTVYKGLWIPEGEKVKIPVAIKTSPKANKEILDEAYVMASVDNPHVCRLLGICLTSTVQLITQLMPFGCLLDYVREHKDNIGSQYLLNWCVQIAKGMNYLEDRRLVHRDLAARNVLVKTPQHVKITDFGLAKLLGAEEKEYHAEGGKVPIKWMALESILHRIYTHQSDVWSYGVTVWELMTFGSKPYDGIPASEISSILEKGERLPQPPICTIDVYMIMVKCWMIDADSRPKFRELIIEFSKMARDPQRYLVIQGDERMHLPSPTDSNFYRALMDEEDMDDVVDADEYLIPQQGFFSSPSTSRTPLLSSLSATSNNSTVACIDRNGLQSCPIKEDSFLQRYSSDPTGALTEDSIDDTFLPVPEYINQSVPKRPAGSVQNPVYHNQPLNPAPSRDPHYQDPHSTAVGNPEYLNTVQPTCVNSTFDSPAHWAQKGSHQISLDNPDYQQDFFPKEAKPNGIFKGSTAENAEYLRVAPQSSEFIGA
Experiment: EGFR degradation HTRF assay, HCC827 cells
Format: cell-based
Conditions: HCC827, 16h treatment, maximum percentage of degradation
experimentalEndpoint: Dmax (%)

CCc1cc(Nc2ncc(Br)c(Nc3ccc4nccnc4c3P(C)(C)=O)n2)c(OC)cc1N1CCC(N2CCN(C(=O)[C@@H]3CCN(c4ccc5c(c4)C(=O)N(C4CCC(=O)NC4=O)C5=O)C3)CC2)CC1 (stereo partly shown)
73.9
CCc1cc(Nc2ncc(Br)c(Nc3ccc4nccnc4c3P(C)(C)=O)n2)c(OC)cc1N1CCC(N2CCN(CC3CCN(c4ccc5c(c4)C(=O)N(C4CCC(=O)NC4=O)C5=O)CC3)CC2)CC1 (stereo not shown)
86.2
CCc1cc(Nc2ncc(Br)c(Nc3ccc4nccnc4c3P(C)(C)=O)n2)c(OC)cc1N1CCC(N2CCN(CCCC3CN(c4ccc5c(c4)C(=O)N(C4CCC(=O)NC4=O)C5=O)C3)CC2)CC1 (stereo not shown)
93.4
COc1cc(N2CCC(N3CCN(CCC4CCN(c5ccc(C6CCC(=O)NC6=O)cc5)CC4)CC3)CC2)ccc1Nc1ncc(Cl)c(Nc2ccccc2P(C)(C)=O)n1 (stereo not shown)
63.2
COc1cc(N2CCC(N3CCN(CCc4ccc(C5CCC(=O)NC5=O)cc4)CC3)CC2)ccc1Nc1ncc(Cl)c(Nc2ccccc2NS(C)(=O)=O)n1 (stereo not shown)
82.2
CCc1cc(Nc2ncc(Br)c(Nc3ccc4nccnc4c3P(C)(C)=O)n2)c(OC)cc1N1CCC(N2CCN(CCc3ccc(C4CCC(=O)NC4=O)cn3)CC2)CC1 (stereo not shown)
78.9
CCc1cc(Nc2ncc(Br)c(Nc3ccc4nccnc4c3P(C)(C)=O)n2)c(OC)cc1N1CCC(N2CCN(CCc3ccc(NC4CCC(=O)NC4=O)cc3)CC2)CC1 (stereo not shown)
76.6
CCc1cc(Nc2ncc(Br)c(Nc3ccc4nccnc4c3P(C)(C)=O)n2)c(OC)cc1N1CCC(N2CCN(CC3CCN(c4ccc(C5CCC(=O)NC5=O)cc4)C3)CC2)CC1 (stereo not shown)
81.2
CCc1cc(Nc2ncc(Br)c(Nc3ccc4nccnc4c3P(C)(C)=O)n2)c(OC)cc1N1CCC(N2CCN(CC3CN(c4ccc5c(c4)C(=O)N(C4CCC(=O)NC4=O)C5=O)C3)CC2)CC1 (stereo not shown)
85.2
COc1cc(N2CCN(CCCC(=O)N[C@H](C(=O)N3C[C@H](O)C[C@H]3C(=O)N[C@@H](C)c3ccc(-c4scnc4C)cc3)C(C)(C)C)CC2)c(C)cc1Nc1ncc(Br)c(Nc2ccc3nccnc3c2P(C)(C)=O)n1
75.9

* * *

Molecular target: EGFR L858R/T790M/C797S (BaF3-LTC cells) (Homo sapiens, UniProt P00533, C797S/L858R/T790M)
Construct: expressed in transfected cells; host or cells: BaF3
Experiment: EGFR degradation HTRF assay, BaF3-LTC cells
Format: cell-based
Conditions: BaF3-LTC cells; maximum percentage of inhibition (degradation); read-out: Dmax (%) BaF3-LTC
experimentalEndpoint: Dmax (%)

CCc1ccc2c(P(C)(C)=O)c(Nc3nc(Nc4cc(CC)c(N5CCC(N6CCN(CCc7cc(F)cc8c7oc(=O)n8C7CCC(=O)NC7=O)CC6)CC5)cc4OC)ncc3Br)ccc2n1 (stereo not shown) [Example 443]
81.4
CCOc1cc(N2CCC(N3CCN(CCc4cc(F)cc5c4oc(=O)n5C4CCC(=O)NC4=O)CC3)CC2)c(CC)cc1Nc1ncc(Br)c(Nc2ccc3nc(CC)ccc3c2P(C)(C)=O)n1 (stereo not shown) [Example 472]
86.9
CCc1ccc2c(P(C)(C)=O)c(Nc3nc(Nc4cc(CC)c(N5CCC(N6CCN(CCc7cc8oc(=O)n(C9CCC(=O)NC9=O)c8cc7F)CC6)CC5)cc4OC)ncc3Br)ccc2n1 (stereo not shown) [Example 457]
92.5
CCOc1cc(N2CCC(N3CCN(CCc4cc(F)c([C@H]5CCC(=O)NC5=O)c(F)c4)CC3)CC2)c(CC)cc1Nc1ncc(Br)c(Nc2ccc3c(=O)n(CC)ncc3c2P(C)(C)=O)n1 [Example 679]
93.3
CCc1cc(Nc2ncc(Br)c(Nc3ccc4nc(C)ccc4c3P(C)(C)=O)n2)c(OC)cc1N1CCC(N2CCN(CCc3ccc4c(c3)oc(=O)n4C3CCC(=O)NC3=O)CC2)CC1 (stereo not shown) [Example 490]
92.8
CCc1cc(Nc2ncc(Br)c(Nc3ccc4c(=O)n(C5CC5)ncc4c3P(C)(C)=O)n2)c(OC)cc1N1CCC(N2CCN(C(=O)[C@@H]3CCN(c4cc(F)c([C@H]5CCC(=O)NC5=O)c(F)c4)C3)CC2)CC1 [Example 526]
96.3
CCc1ccc2c(P(C)(C)=O)c(Nc3nc(Nc4cc(CC)c(N5CCC(N6CCN(C(=O)Cc7cccc8c7n(C)c(=O)n8C7CCC(=O)NC7=O)CC6)CC5)cc4OC)ncc3Br)cc(F)c2n1 (stereo not shown) [Example 671]
92.7
CCc1cc(Nc2ncc(Br)c(Nc3ccc4c(=O)n(C)ncc4c3P(C)(C)=O)n2)c(OC)cc1N1CCC(N2CCN(C(=O)[C@@H]3CCN(c4cc(F)c([C@H]5CCC(=O)NC5=O)c(F)c4)C3)CC2)CC1 [Example 528]
97.3
CCc1ccc2c(P(C)(C)=O)c(Nc3nc(Nc4cc(CC)c(N5CCC(N6CCN(CC[C@H]7CCN(c8cc(F)c(C9CCC(=O)NC9=O)c(F)c8)C7)CC6)CC5)cc4OC)ncc3Br)ccc2n1 (stereo partly shown) [Example 650]
75
CCc1cc(Nc2ncc(Br)c(Nc3ccc4nc(C)ccc4c3P(C)(C)=O)n2)c(OC2CC2)cc1N1CCC(N2CCN(CCc3cccc4c3n(C)c(=O)n4C3CCC(=O)NC3=O)CC2)CC1 (stereo not shown) [Example 642]
93.7
